Test: physchem
Conditions: pH 6
observed property: solubility (µg/mL)
Give your result in µg/mL as a bare value.

stdin: Would you kindly share the measured solubility for `N#C[C@@]1(c2ccc3c(N)ncnn23)O[C@H](CO)[C@@H](O)[C@H]1O` ?
stdout: 105
